Recorded values, source patent US20110117055A1.

# Tested on: HCV2aChLuc virus
# MEASUREMENT NOTES: In vitro HCVcc entry assay: HCV2aChLuc virus infection of Huh7 cells, Renilla luciferase read-out
# Type: cell-based, HCV genotype 2a
# MEASUREMENT CONTEXT: Hepatitis C virus, Huh-7, 72 h, read-out: observed IC50, Huh7 cells co-incubated with HCV2aChRluc virus and compound for 3 days; repeated assays (n>30)
Below is a list of entries, each paired with its recorded IC50 value.
RECORDED METRIC: IC50

> print(dat)
                            smiles.notation  measurement.target  recorded.metric     test.result
1  COc1c(NC(=O)C(=O)c2ccc(OCCN3CCOCC3)c3ccccc23)cc(C(C)(C)C)cc1NS(C)(=O)=O    HCV2aChLuc virus             IC50  0.05 to 0.5 nM
2  COc1ccc(C(C)(C)C)cc1NC(=O)C(=O)c1ccc(OCCN2CCOCC2)c2ccccc12    HCV2aChLuc virus             IC50     0.2 to 2 nM

====

# Test system: HCV2aChLuc virus
# MEASUREMENT NOTES: In vitro HCVcc entry assay: HCV2aChLuc virus infection of Huh7 cells, Renilla luciferase read-out
# Assay type: cell-based, HCV genotype 2a
# MEASUREMENT CONTEXT: Hepatitis C virus, Huh-7, read-out: Activity class (IC50), tested according to the method of Example 3
Catalogue of IC50 readings, one per entry.
RECORDED METRIC: IC50

> print(dat)
                                    compound  measurement.target  recorded.metric  test.result
 1  COc1c(NC(=O)C(=O)c2ccc(OCCN3CCCCC3)c3ccccc23)cc(C(C)(C)C)cc1NS(C)(=O)=O [Compound 111]    HCV2aChLuc virus             IC50  5 to 500 nM
 2  COc1c(NC(=O)C(=O)c2ccc(OCCN3CCN(C(=O)OC(C)(C)C)CC3)c3ccccc23)cc(C(C)(C)C)cc1NS(C)(=O)=O [Compound 56]    HCV2aChLuc virus             IC50  5 to 500 nM
 3  CC(C)(C)c1cc(NC(=O)C(=O)c2ccc(OCCN3CCOCC3)c3ccccc23)n(-c2ccccc2)n1 [Compound 34]    HCV2aChLuc virus             IC50     > 500 nM
 4  COc1c(NC(=O)C(=O)c2ccc(OCCN3CCOCC3)c3ccccc23)cc(C(C)(C)C)cc1C(=O)N1CCN(CCO)CC1 [Compound 101]    HCV2aChLuc virus             IC50     > 500 nM
 5  CC(C)(C)CCNC(=O)C(=O)c1ccc(OCCN2CCOCC2)c2ccccc12 [Compound 66]    HCV2aChLuc virus             IC50     > 500 nM
 6  COc1c(NC(=O)C(=O)c2ccc(OCCN3CCNC(=O)C3)c3ccccc23)cc(C(C)(C)C)cc1NS(C)(=O)=O [Compound 53]    HCV2aChLuc virus             IC50     > 500 nM
 7  COc1c(NC(=O)C(=O)c2ccc(OCCN3CCOCC3)c3ccccc23)cc(C(C)(C)C)cc1C(=O)N1CCCN(C)CC1 [Compound 102]    HCV2aChLuc virus             IC50     > 500 nM
 8  COc1c(C#N)cc(C(C)(C)C)cc1NC(=O)C(=O)c1ccc(Nc2ccnc(N3CCCC3)n2)c2ccccc12 [Compound 95]    HCV2aChLuc virus             IC50     > 500 nM
 9  COc1c(NC(=O)C(=O)c2ccc(OCCN3CCN(C(C)=O)CC3)c3ccccc23)cc(C(C)(C)C)cc1NS(C)(=O)=O [Compound 54]    HCV2aChLuc virus             IC50  5 to 500 nM
10  CCNC(=O)c1cc(C(C)(C)C)cc(NC(=O)C(=O)c2ccc(-c3ccc(NC)nc3)c3ccccc23)c1OC [Compound 138]    HCV2aChLuc virus             IC50       < 5 nM
11  CC(C)(C)c1cc(NC(=O)C(=O)c2ccc(OCCN3CCOCC3)c3ccccc23)n(C(C)(C)C)n1 [Compound 59]    HCV2aChLuc virus             IC50     > 500 nM
12  CC(C)(C)c1nnc(NC(=O)C(=O)c2ccc(OCCN3CCOCC3)c3ccccc23)s1 [Compound 61]    HCV2aChLuc virus             IC50     > 500 nM
13  COc1c(NC(=O)C(=O)c2ccc(OCCN3CCOCC3)c3ccccc23)cc(C(C)(C)C)cc1C(=O)N1CCN(C(C)C)CC1 [Compound 99]    HCV2aChLuc virus             IC50  5 to 500 nM
14  COc1c(NC(=O)C(=O)c2ccc(OC)c3ccccc23)cc(C(C)(C)C)cc1C(N)=O [Compound 77]    HCV2aChLuc virus             IC50     > 500 nM
15  COc1ccc(C(C)(C)C)cc1NC(=O)C(=O)c1ccc(-c2cccnc2)c2ccccc12 [Compound 127]    HCV2aChLuc virus             IC50     > 500 nM
16  CCCS(=O)(=O)Nc1cc(C(C)(C)C)cc(NC(=O)C(=O)c2ccc(OCC(=O)c3ccc(OC)cc3)c3ccccc23)c1OC [Compound 84]    HCV2aChLuc virus             IC50     > 500 nM
17  COc1c(NC(=O)C(=O)c2ccc(OCCN(CCOCc3ccccc3)CCOCc3ccccc3)c3ccccc23)cc(C(C)(C)C)cc1NS(C)(=O)=O [Compound 93]    HCV2aChLuc virus             IC50     > 500 nM
18  COc1c(NC(=O)C(=O)c2ccc(OCCN3CCOCC3)c3ccccc23)cc(C(C)(C)C)cc1C(=O)N1CCCCC1CN(C)C (stereo not shown) [Compound 106]    HCV2aChLuc virus             IC50     > 500 nM
19  O=C(Nc1cnc2ccccc2c1)C(=O)c1ccc(OCCN2CCOCC2)c2ccccc12 [Compound 81]    HCV2aChLuc virus             IC50     > 500 nM
20  O=C(Nc1cc(C(F)(F)F)ccc1Cl)C(=O)c1ccc(OCCN2CCOCC2)c2ccccc12 [Compound 82]    HCV2aChLuc virus             IC50     > 500 nM
21  COc1c(NC(=O)C(=O)c2ccc(OCCN3CCOCC3)c3ccccc23)cc(C(C)(C)C)cc1C(=O)N1CCNC(=O)C1 [Compound 26]    HCV2aChLuc virus             IC50  5 to 500 nM
22  COc1c(NC(=O)C(=O)c2ccc(OCCN3CCOCC3)c3ccccc23)cc(C(C)(C)C)cc1C(=O)N1CCN(C)CC1 [Compound 98]    HCV2aChLuc virus             IC50     > 500 nM
23  CC(C)(C)c1ccccc1NC(=O)C(=O)c1ccc(OCCN2CCOCC2)c2ccccc12 [Compound 43]    HCV2aChLuc virus             IC50     > 500 nM
24  COc1c(N)cc(C(C)(C)C)cc1NC(=O)C(=O)c1cccc2ccccc12 [Compound 132]    HCV2aChLuc virus             IC50     > 500 nM
25  CNc1ccc(-c2ccc(C(=O)C(=O)Nc3cc(C(C)(C)C)cc(NS(C)(=O)=O)c3OC)c3ccccc23)cn1 [Compound 131]    HCV2aChLuc virus             IC50     > 500 nM
26  COc1c(NC(=O)C(=O)c2ccc(OCCN3CCOCC3)c3ccccc23)cc(C(F)(F)F)cc1NS(C)(=O)=O [Compound 116]    HCV2aChLuc virus             IC50     > 500 nM
27  COc1c(NC(=O)C(=O)c2ccc(OCCN3CCOCC3)c3ccccc23)cc(C(C)(C)C)cc1N(CCN1CCOCC1)S(C)(=O)=O [Compound 117]    HCV2aChLuc virus             IC50     > 500 nM
28  COc1c(NC(=O)C(=O)c2ccc(OCCN3CCOCC3)c3cccc(Cl)c23)cc(C(C)(C)C)cc1NS(C)(=O)=O [Compound 76]    HCV2aChLuc virus             IC50     > 500 nM
